Each item that follows carries a reported Oryza sativa (Efficacy in %).
# System: Oryza sativa
# procedure_summary: Crop compatibility post-emergence, greenhouse pot test
# Type: in vivo
# study_conditions: application rate 5 g/ha
Please give a number only; it is taken to be in %.

Reported Oryza sativa (Efficacy in %) ( CC(Sc1cc(-n2c(=O)cc(C(F)(F)F)n(C)c2=O)c(F)cc1Cl)C(=O)OCC1CCC(=O)O1 (stereo not shown) ) = 20

The reported value for CC(Sc1cc(-n2c(=O)cc(C(F)(F)F)n(C)c2=O)c(F)cc1Cl)C(=O)OCCC(=O)N(C)C (stereo not shown) in terms of Oryza sativa (Efficacy in %) is 10

The value of Oryza sativa (Efficacy in %) measured for the compound CCOC(=O)CC(C)OC(=O)CSc1cc(-n2c(=O)cc(C(F)(F)F)n(C)c2=O)c(F)cc1Cl (stereo not shown) turned out to be 20

Continuing:
Quick note, Oryza sativa (Efficacy in %) for COC(=O)C1(OC(=O)C(C)Sc2cc(-n3c(=O)cc(C(F)(F)F)n(C)c3=O)c(F)cc2Cl)CC1 (stereo not shown) landed at 0

---

# Tested on: Zea mays
# procedure_summary: Crop compatibility post-emergence, greenhouse pot test
# Assay type: in vivo
# study_conditions: application rate 20 g/ha
Measured Zea mays (Efficacy in %) accompanies every entry in the list below.

Record excerpt, results attached:
# value of Zea mays (Efficacy in %), Zea mays, item CC(Sc1cc(-n2c(=O)cc(C(F)(F)F)n(C)c2=O)c(F)cc1Cl)C(=O)OC1CCNC1=O (stereo not drawn) = 10%

Entry CCCCC(Sc1cc(-n2c(=O)cc(C(F)(F)F)n(C)c2=O)c(F)cc1Cl)C(=O)OCCC(=O)OCc1ccccc1 (stereo not drawn) , tested on Zea mays, has a reported Zea mays (Efficacy in %) of 20%

Observed Zea mays (Efficacy in %), Zea mays, CCCOC(=O)CCOC(=O)C(CC)Sc1cc(-n2c(=O)cc(C(F)(F)F)n(C)c2=O)c(F)cc1Cl (stereo not drawn) : 0%

The measured Zea mays (Efficacy in %) that CCNC(=O)COC(=O)C(C)Sc1cc(-n2c(=O)cc(C(F)(F)F)n(C)c2=O)c(F)cc1Cl (stereo not drawn) showed for Zea mays is 10%

Reported Zea mays (Efficacy in %) (Zea mays) for entry CC(Sc1cc(-n2c(=O)cc(C(F)(F)F)n(C)c2=O)c(F)cc1Cl)C(=O)OCCC(=O)OCc1ccccc1 (stereo not drawn) is 10%

// assay Zea mays, entry CCOC(=O)CCOC(=O)C(CC)Sc1cc(-n2c(=O)cc(C(F)(F)F)n(C)c2=O)c(F)cc1Cl (stereo not drawn) , Zea mays (Efficacy in %) value = 0%

Measured Zea mays (Efficacy in %) (Zea mays), entry "COC(=O)CCOC(=O)C(C)(C)Sc1cc(-n2c(=O)cc(C(F)(F)F)n(C)c2=O)c(F)cc1Cl" : 20%

Kindly note: Zea mays, CCOC(=O)COC(=O)C(CC)Sc1cc(-n2c(=O)cc(C(F)(F)F)n(C)c2=O)c(F)cc1Cl (stereo not drawn) , Zea mays (Efficacy in %) value reported: 20%

The observed Zea mays (Efficacy in %) for CNC(=O)COC(=O)C(C)Sc1cc(-n2c(=O)cc(C(F)(F)F)n(C)c2=O)c(F)cc1Cl (stereo not drawn) when tested with Zea mays stands at 20%

Fill in: Zea mays Zea mays (Efficacy in %) for COC(=O)C(C)(C)OC(=O)C(C)Sc1cc(-n2c(=O)cc(C(F)(F)F)n(C)c2=O)c(F)cc1Cl (stereo not drawn) = 20%

Next:
Zea mays Zea mays (Efficacy in %) of COC(=O)C(C)(C)COC(=O)C(C)Sc1cc(-n2c(=O)cc(C(F)(F)F)n(C)c2=O)c(F)cc1Cl (stereo not drawn) is 20%

With Zea mays as the test system, CC(C)NC(=O)COC(=O)C(C)Sc1cc(-n2c(=O)cc(C(F)(F)F)n(C)c2=O)c(F)cc1Cl (stereo not drawn) showed Zea mays (Efficacy in %) of 20%

---

# Test system: Triticum aestivum
# procedure_summary: Crop compatibility post-emergence, greenhouse pot test
# Type: in vivo
# study_conditions: application rate 20 g/ha
quantity: Triticum aestivum (Efficacy in %)
Give your result in % as a bare value.

Record excerpt, results attached:
Reported Triticum aestivum (Efficacy in %) for CC(Sc1cc(-n2c(=O)cc(C(F)(F)F)n(C)c2=O)c(F)cc1Cl)C(=O)OCC(=O)OCc1ccccc1 (stereo not shown) [I.1-46] was 20

Measured Triticum aestivum (Efficacy in %) of CC(Sc1cc(-n2c(=O)cc(C(F)(F)F)n(C)c2=O)c(F)cc1Cl)C(=O)OCCC(=O)OCc1ccccc1 (stereo not shown) [I.1-6] : 0

Sure, the documented Triticum aestivum (Efficacy in %) for CCCOC(=O)CCOC(=O)C(C)Sc1cc(-n2c(=O)cc(C(F)(F)F)n(C)c2=O)c(F)cc1Cl (stereo not shown) [I.1-8] is 20

Here is another molecule to look at.
Reported Triticum aestivum (Efficacy in %) of COC(=O)COC(=O)C(C)Sc1cc(-n2c(=O)cc(C(F)(F)F)n(C)c2=O)c(F)cc1Cl (stereo not shown) [I.1-42] : 20

---

# System: Triticum aestivum
# procedure_summary: Crop compatibility post-emergence, greenhouse pot test
# Assay type: in vivo
# study_conditions: application rate 5 g/ha
# Source text: Seeds of mono- and dicotyledonous weed plants and crop plants were laid out in sandy loam soil in plastic or wood-fiber pots, covered with soil and grown under controlled growth conditions in a greenhouse. […] After the trial plants had stood for about 3 weeks in the greenhouse, under optimal growth conditions, the effect of the preparations was scored visually by comparison with untreated controls. […] Crop plant compatibilities were also scored correspondingly. […]
quantity: Triticum aestivum (Efficacy in %)
Only the number, expressed in %, is required.

Study these solved cases before continuing.
Measured Triticum aestivum (Efficacy in %) of "COC(=O)COC(=O)CSc1cc(-n2c(=O)cc(C(F)(F)F)n(C)c2=O)c(F)cc1Cl" : 20

Recorded result, CCC(Sc1cc(-n2c(=O)cc(C(F)(F)F)n(C)c2=O)c(F)cc1Cl)C(=O)OCCC(=O)OC (stereo not drawn) , Triticum aestivum (Efficacy in %): 20

Reported Triticum aestivum (Efficacy in %) ( "CC(C)OC(=O)COC(=O)CSc1cc(-n2c(=O)cc(C(F)(F)F)n(C)c2=O)c(F)cc1Cl" ) = 20

Others:
The reported Triticum aestivum (Efficacy in %) of the compound "CCOC(=O)COC(=O)CSc1cc(-n2c(=O)cc(C(F)(F)F)n(C)c2=O)c(F)cc1Cl" was 10

Field Triticum aestivum (Efficacy in %) (entry CC(Sc1cc(-n2c(=O)cc(C(F)(F)F)n(C)c2=O)c(F)cc1Cl)C(=O)OCCC(=O)N(C)C (stereo not drawn) ) reads 20

get_value(item= CCOC(=O)CCOC(=O)C(Sc1cc(-n2c(=O)cc(C(F)(F)F)n(C)c2=O)c(F)cc1Cl)C(C)CC (stereo not drawn) , readout=Triticum aestivum (Efficacy in %)) returns 20

---

# Tested on: Oryza sativa
# procedure_summary: Crop compatibility post-emergence, greenhouse pot test
# Assay type: in vivo
# study_conditions: application rate 80 g/ha
quantity: Oryza sativa (Efficacy in %)

Example entries begin here.
For record COC(=O)C(C)(C)OC(=O)C(C)Sc1cc(-n2c(=O)cc(C(F)(F)F)n(C)c2=O)c(F)cc1Cl (stereo not shown) the listed Oryza sativa (Efficacy in %) is 20%

Quick note, Oryza sativa (Efficacy in %) for CC(Sc1cc(-n2c(=O)cc(C(F)(F)F)n(C)c2=O)c(F)cc1Cl)C(=O)OC1CNC(=O)C1 (stereo not shown) landed at 0%

Quick note, Oryza sativa (Efficacy in %) for CC(Sc1cc(-n2c(=O)cc(C(F)(F)F)n(C)c2=O)c(F)cc1Cl)C(=O)OCC1CCC(=O)N1 (stereo not shown) landed at 0%

---
Entry "COC(=O)CCOC(=O)C(C)(C)Sc1cc(-n2c(=O)cc(C(F)(F)F)n(C)c2=O)c(F)cc1Cl" ; Oryza sativa (Efficacy in %) = 20%

---

Entries and their measured Oryza sativa (Efficacy in %) follow.
# Test system: Oryza sativa
# procedure_summary: Crop compatibility post-emergence, greenhouse pot test
# Format: in vivo
# study_conditions: application rate 20 g/ha
Answer format: numeric, % implied, no suffix.

Hey, Oryza sativa data for COC(=O)COC(=O)C(C)Sc1cc(-n2c(=O)cc(C(F)(F)F)n(C)c2=O)c(F)cc1Cl (stereo not drawn) [I.1-42] : Oryza sativa (Efficacy in %) came out at 10

More entries:
Case CCOC(=O)COC(=O)C(CC(C)C)Sc1cc(-n2c(=O)cc(C(F)(F)F)n(C)c2=O)c(F)cc1Cl (stereo not drawn) [I.4-43] , Oryza sativa, Oryza sativa (Efficacy in %) recorded as 10

Form: item COC(=O)C(C)(C)COC(=O)C(C)Sc1cc(-n2c(=O)cc(C(F)(F)F)n(C)c2=O)c(F)cc1Cl (stereo not drawn) [I.1-32] ; test system Oryza sativa; Oryza sativa (Efficacy in %): 20

Form: item CNC(=O)COC(=O)C(C)Sc1cc(-n2c(=O)cc(C(F)(F)F)n(C)c2=O)c(F)cc1Cl (stereo not drawn) [I.1-182] ; test system Oryza sativa; Oryza sativa (Efficacy in %): 20

The reported Oryza sativa Oryza sativa (Efficacy in %) of CC(Sc1cc(-n2c(=O)cc(C(F)(F)F)n(C)c2=O)c(F)cc1Cl)C(=O)OC1CCOC1=O (stereo not drawn) [I.1-141] is 0

Oryza sativa (Efficacy in %) on Oryza sativa for CCOC(=O)CCOC(=O)C(C)Sc1cc(-n2c(=O)cc(C(F)(F)F)n(C)c2=O)c(F)cc1Cl (stereo not drawn) [I.1-3] is 20

CCOC(=O)CCOC(=O)C(CC)Sc1cc(-n2c(=O)c(C)c(C(F)(F)F)n(C)c2=O)c(F)cc1Cl (stereo not drawn) [I.12-3] tested on Oryza sativa gave Oryza sativa (Efficacy in %): 0

Bench note, Oryza sativa: CCCOC(=O)CCOC(=O)C(CC)Sc1cc(-n2c(=O)cc(C(F)(F)F)n(C)c2=O)c(F)cc1Cl (stereo not drawn) [I.2-8] , Oryza sativa (Efficacy in %) reads 0

Bench note, Oryza sativa: CC(Sc1cc(-n2c(=O)cc(C(F)(F)F)n(C)c2=O)c(F)cc1Cl)C(=O)OCCC(=O)OCc1ccccc1 (stereo not drawn) [I.1-6] , Oryza sativa (Efficacy in %) reads 0

Entry CCOC(=O)CCOC(=O)C(CC)Sc1cc(-n2c(=O)cc(C(F)(F)F)n(C)c2=O)c(F)cc1Cl (stereo not drawn) [I.1-2-3] ; assay system Oryza sativa; Oryza sativa (Efficacy in %) recorded at 0

Fill in: Oryza sativa Oryza sativa (Efficacy in %) for CCOC(=O)COC(=O)C(CC)Sc1cc(-n2c(=O)cc(C(F)(F)F)n(C)c2=O)c(F)cc1Cl (stereo not drawn) [I.2-43] = 20

Sample CC(Sc1cc(-n2c(=O)cc(C(F)(F)F)n(C)c2=O)c(F)cc1Cl)C(=O)OCCC(N)=O (stereo not drawn) [I.1-151] , system: Oryza sativa. Its Oryza sativa (Efficacy in %) is 10

Note to self: Oryza sativa (Efficacy in %) of CCCCC(Sc1cc(-n2c(=O)cc(C(F)(F)F)n(C)c2=O)c(F)cc1Cl)C(=O)OCCC(=O)OCc1ccccc1 (stereo not drawn) [I.47-6] with Oryza sativa was 20

Given the molecule CCOC(=O)CCOC(=O)C(C)Sc1cc(-n2c(=O)c(C)c(C(F)(F)F)n(C)c2=O)c(F)cc1Cl (stereo not drawn) [I.11-3] and test system Oryza sativa, the measured Oryza sativa (Efficacy in %) is 10

// assay Oryza sativa, entry COC(=O)C(C)OC(=O)C(C)Sc1cc(-n2c(=O)cc(C(F)(F)F)n(C)c2=O)c(F)cc1Cl (stereo not drawn) [I.1-72] , Oryza sativa (Efficacy in %) value = 10

// provenance: patent US11274083B2
